Provide the reported CO2 permeability of each item.
One number for each entry, in Barrer.

compound | CO2 permeability, Barrer
*CC(*)C(=O)OCCCCCCCCCC (repeat unit) | 261
*c1c(C)c2c(c(N3C(=O)c4ccc(-c5ccc6c(c5)C(=O)N(*)C6=O)cc4C3=O)c1C)C(C)(C)CC2 (repeat unit) | 329
*Nc1ccc(Oc2c(F)c(F)c(Oc3ccc(NC(=O)CN4C(=O)c5ccc(C(*)=O)cc5C4=O)cc3)c(F)c2F)cc1 (repeat unit) | 1.27
*OC1OC(OC(C)=O)C(*)C(OC(C)=O)C1OC(C)=O (repeat unit) | 6.56
*Oc1c(Br)cc(C2(c3cc(Br)c(OC(=O)c4cc(C(*)=O)cc(C(C)(C)C)c4)c(Br)c3)OC(=O)c3ccccc32)cc1Br (repeat unit) | 30.6

Please give CO2 permeability for each item listed below.
1. *Oc1ccc(S(=O)(=O)c2ccc(Oc3ccc(C(C)(C)c4ccc(*)cc4)cc3CN3C(=O)c4ccccc4C3=O)cc2)cc1 (repeat unit)
2. *c1ccc(C(c2ccc(-n3c(=O)c4cc5oc6cc7c(cc6oc5cc4c3=O)C3(CC(C)(C)c4cc5oc6cc8c(=O)n(*)c(=O)c8cc6oc5cc43)CC7(C)C)cc2)(C(F)(F)F)C(F)(F)F)cc1 (repeat unit)

2.12
520

Origin of measurements: a polymer gas permeability compilation
